Attribution: paper PMC6210068

molecular target: KOR (Homo sapiens); assay: biochemical; format: binding; details: KOR, Ki, [3H]U69593; mean ± SEM, N = 2–4
Sequence (P41145 whole entry): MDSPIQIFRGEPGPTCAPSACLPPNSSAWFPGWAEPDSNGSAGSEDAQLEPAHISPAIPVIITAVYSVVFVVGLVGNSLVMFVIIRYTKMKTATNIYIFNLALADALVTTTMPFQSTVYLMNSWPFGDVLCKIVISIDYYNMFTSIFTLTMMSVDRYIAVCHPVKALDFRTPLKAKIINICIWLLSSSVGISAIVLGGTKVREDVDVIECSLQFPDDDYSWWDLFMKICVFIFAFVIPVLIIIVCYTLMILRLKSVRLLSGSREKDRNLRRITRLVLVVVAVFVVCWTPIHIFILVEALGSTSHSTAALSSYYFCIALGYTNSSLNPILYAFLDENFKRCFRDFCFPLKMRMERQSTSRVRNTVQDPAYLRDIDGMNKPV
We'd kindly ask you to apply these Ki classes: bin A (below 300 nM), bin B (300 nM to below 1000 nM), bin C (1000 nM or more)

## Input GET /class?item= CCOC(=O)[C@@]12C[C@@H]1[C@@H](n1ccc3c(NC)nc(C#Cc4ccc(Cl)s4)nc31)[C@H](O)[C@@H]2O
## Output bin A

## Input Hi, small favor: classify CCOC(=O)[C@@]12C[C@@H]1[C@@H](n1cnc3c(NC)cc(C#Cc4ccc(Cl)s4)nc31)[C@H](O)[C@@H]2O by its Ki when you get a moment.
## Output bin B

## Input Would you mind sorting CCOC(=O)[C@@]12C[C@@H]1[C@@H](n1ccc3c(NC)nc(C#Cc4ccc(Br)s4)nc31)[C@H](O)[C@@H]2O into the appropriate category?
## Output bin A

## Input Class (by measured Ki) for CNc1nc(C#Cc2ccc(Cl)s2)nc2c1ncn2[C@H]1[C@H](O)[C@H](O)[C@]2(C(=O)OC)C[C@H]12
## Output bin C

## Input Into which category would you place CNc1nc(C#Cc2ccc(Cl)s2)nc2c1ncn2[C@H]1[C@H](O)[C@H](O)[C@]2(C(=O)OCCC(C)C)C[C@H]12 ?
## Output bin C

## Input Lab note: which band did CCOC(=O)[C@@]12C[C@@H]1[C@@H](n1ccc3c(NC)nc(C#Cc4ccccc4)nc31)[C@H](O)[C@@H]2O land in?
## Output bin A

## Input Field: class (Ki) — entry: CCOC(=O)[C@@]12C[C@@H]1[C@@H](n1ccc3c(NC4CC4)nc(C#Cc4ccccc4)nc31)[C@H](O)[C@@H]2O
## Output bin B

## Input Bin this entry: CCOC(=O)[C@@]12C[C@@H]1[C@@H](n1ccc3c(NCC4CC4)nc(C#Cc4ccccc4)nc31)[C@H](O)[C@@H]2O
## Output bin C

## Input Record CCOC(=O)[C@@]12C[C@@H]1[C@@H](n1ccc3c(NC)nc(I)nc31)[C@H](O)[C@@H]2O — which class?
## Output bin A

## Input Hi there! Could you help me figure out the category for O[C@@H]1[C@H](O)[C@@H]2C[C@@H]2[C@H]1n1ccc2c(NC(C3CC3)C3CC3)nc(C#Cc3ccc(Br)s3)nc21 please?
## Output bin C

## Input Determine which band this compound sits in: O[C@@H]1[C@H](O)[C@@H]2C[C@@H]2[C@H]1n1ccc2c(NCCc3ccccc3)nc(C#Cc3ccccc3)nc21
## Output bin C

## Input State the band of CCCCC(=O)[C@@]12C[C@@H]1[C@@H](n1ccc3c(NC)nc(C#Cc4ccc(Cl)s4)nc31)[C@H](O)[C@@H]2O
## Output bin C

## Input Bin? CCCOC(=O)[C@@]12C[C@@H]1[C@@H](n1cnc3c(NC)nc(C#Cc4ccc(Cl)s4)nc31)[C@H](O)[C@@H]2O
## Output bin B

## Input # bin lookup: classify CNc1nc(C#Cc2ccc(Cl)s2)nc2c1ncn2[C@H]1[C@H](O)[C@H](O)[C@]2(C(=O)OCCC3CCCCC3)C[C@H]12 by its Ki
## Output bin C

## Input Just checking, what class would you give CCOC(=O)[C@@]12C[C@@H]1[C@@H](n1ccc3c(NC)nc(I)nc31)[C@@H]1OC(C)(C)O[C@@H]12 here?
## Output bin A

## Input Please let me know in which category the item CNc1nc(C#Cc2ccc(Br)s2)nc2c1ncn2[C@H]1[C@H](O)[C@H](O)[C@]2(C(=O)OC)C[C@H]12 belongs.
## Output bin C

## Input Which band does CCOC(=O)[C@@]12C[C@@H]1[C@@H](n1ccc3c(NC)nc(C#Cc4ccc(Cl)s4)nc31)[C@@H]1OC(C)(C)O[C@@H]12 fall in?
## Output bin A

## Input Which Ki category applies to CNc1nc(C#Cc2ccc(Cl)s2)nc2c1ncn2[C@H]1[C@H](O)[C@H](O)[C@]2(C(=O)OCCCc3ccccc3)C[C@H]12 here?
## Output bin C

## Input Consider CCOC(=O)[C@@]12C[C@@H]1[C@@H](n1ccc3c(NCCc4ccccc4)nc(C#Cc4ccccc4)nc31)[C@@H]1OC(C)(C)O[C@@H]12 . To which Ki class does it belong?
## Output bin A

## Input State the class of the compound shown: CNc1nc(C#Cc2ccc(Cl)s2)nc2c1ncn2[C@H]1[C@H](O)[C@H](O)[C@]2(C(=O)OCCc3ccccc3)C[C@H]12
## Output bin C
